- assayed target: RAC-alpha serine/threonine-protein kinase (Homo sapiens, UniProt P31749)
- Sequence (P31749 whole entry): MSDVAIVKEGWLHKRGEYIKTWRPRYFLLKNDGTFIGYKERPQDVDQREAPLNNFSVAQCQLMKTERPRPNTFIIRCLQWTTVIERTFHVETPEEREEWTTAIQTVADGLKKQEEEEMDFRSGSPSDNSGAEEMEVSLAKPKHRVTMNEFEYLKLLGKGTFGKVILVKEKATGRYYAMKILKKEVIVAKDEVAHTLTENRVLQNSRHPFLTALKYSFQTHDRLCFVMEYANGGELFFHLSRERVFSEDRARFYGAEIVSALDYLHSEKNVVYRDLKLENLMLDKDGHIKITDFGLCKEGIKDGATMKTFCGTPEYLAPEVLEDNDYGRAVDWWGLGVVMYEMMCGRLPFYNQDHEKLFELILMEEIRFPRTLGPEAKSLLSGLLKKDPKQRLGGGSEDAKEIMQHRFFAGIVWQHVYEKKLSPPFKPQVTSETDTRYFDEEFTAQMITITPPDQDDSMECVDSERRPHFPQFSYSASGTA
- test: Inhibition of Akt phosphorylation in human insulin-stimulated A549 cells incubated for 2 hrs prior to insulin-induction measured after 30 mins by ELISA
readout type: IC50 (µM)
One number for each entry, in µM.

- molecule: "CCCCCCCCCCCCCCCCCCCCCC[C@@]1(C(=O)OCC)CCC[C@@H]1OP(=O)([O-])OCC[N+](C)(C)C (racemic)"
  test value: 19.1
- molecule: "CCCCCCCCCCCCCCCCCC[C@@]1(C(=O)OCC)CCC[C@H]1OP(=O)([O-])OCC[N+](C)(C)C (racemic)"
  test value: 10.9
- molecule: "CCCCCCCCCCCCCCCCCCOP(=O)([O-])OC1CC[N+](C)(C)CC1"
  test value: 5.3
- molecule: "CCCCCCCCCCCCCCCC[C@@]1(C(=O)OCC)CCC[C@@H]1OP(=O)([O-])OCC[N+](C)(C)C (racemic)"
  test value: 5

Now look at this entry.
Need IC50 of CCCCCCCCCCCCC[C@@]1(C(=O)OCC)CCC[C@H]1OP(=O)([O-])OCC[N+](C)(C)C (racemic) , thanks.
3.1

* * *

Give pIC50 for every item shown.
- assayed target: RAC-alpha serine/threonine-protein kinase (Homo sapiens)
- test: Inhibition of Akt phosphorylation in human insulin-stimulated A549 cells incubated for 2 hrs prior to insulin-induction measured after 30 mins by ELISA
Answers are plain numbers, as −log10 of the molar value.

- compound: "CCCCCCCCCCCCCCCCOP(=O)([O-])OCC[N+](C)(C)C [MILTEFOSINE]"
  assayed target: "RAC-alpha serine/threonine-protein kinase (Homo sapiens)"
  pIC50: 5.02
- compound: "CCCCCCCCCCCCCCCCCCCC[C@@]1(C(=O)OCC)CCC[C@H]1OP(=O)([O-])OCC[N+](C)(C)C (racemic)"
  assayed target: "RAC-alpha serine/threonine-protein kinase (Homo sapiens)"
  pIC50: 5.15
- compound: "CCCCCCCCCCCCCCCCCCCC[C@@]1(C(=O)OCC)CCC[C@@H]1OP(=O)([O-])OCC[N+](C)(C)C (racemic)"
  assayed target: "RAC-alpha serine/threonine-protein kinase (Homo sapiens)"
  pIC50: 5.16
- compound: "CCCCCCCCCCCCCCCCCCCCCC[C@@]1(C(=O)OCC)CCC[C@H]1OP(=O)([O-])OCC[N+](C)(C)C (racemic)"
  assayed target: "RAC-alpha serine/threonine-protein kinase (Homo sapiens)"
  pIC50: 5.26
- compound: "CCCCCCCCCCCCCCCCCC[C@@]1(C(=O)OCC)CCC[C@@H]1OP(=O)([O-])OCC[N+](C)(C)C (racemic)"
  assayed target: "RAC-alpha serine/threonine-protein kinase (Homo sapiens)"
  pIC50: 5.52
- compound: "CCCCCCCCCCCCC[C@@]1(C(=O)OCC)CCC[C@@H]1OP(=O)([O-])OCC[N+](C)(C)C (racemic)"
  assayed target: "RAC-alpha serine/threonine-protein kinase (Homo sapiens)"
  pIC50: 5.21
- compound: "CCCCCCCCCCCCCCCC[C@@]1(C(=O)OCC)CCC[C@H]1OP(=O)([O-])OCC[N+](C)(C)C (racemic)"
  assayed target: "RAC-alpha serine/threonine-protein kinase (Homo sapiens)"
  pIC50: 5.70

Note: attention shifts to another entry.
Entry CCCCCCCCCCCCCCCCCCOCC(COP(=O)([O-])OCC[N+](C)(C)C)OC (stereo not drawn) [EDELFOSINE] has what pIC50?
5.46
